System: MDA-MB-231 breast
ASSAY_REMARKS: NCI-60 one-dose screen, 48 h
CONDITION_NOTES: 10 µM unless noted
About 83,000 compounds went through this panel and 20% of them were active in at least one assay; those are over-represented in the sample as a whole. Active and inactive are the calls of the source. Rule for the calls: active = growth percent below 10; inactive = the rest.
Form entry, call: pick from 1 for active, 0 for inactive

Here are 8 molecules together with their reported answers.
CCN(CC)CCSc1ncnc2c1cnn2-c1ccc(S(N)(=O)=O)cc1 ... 0
COc1cnc2c(c1)C(=O)c1c-2n(CCCNC2=NCCS2)c(=O)c2cc(F)ccc12 ... 0
O=C(N/N=C/c1cccc(O)c1O)c1ccccc1 ... 0
CCSc1ncc(Br)c(Sc2nc(N)nc3nc[nH]c23)n1 ... 0
CC1Cc2ccccc2N1C(=O)c1ccc(C(=O)c2ccccc2)cc1 (centres undefined) ... 0
O=[N+]([O-])c1ccc(N=Nc2c(Cl)cc(O)cc2Cl)cc1 ... 1
CCSc1nc(Nc2ccc(S(=O)(=O)Nc3ccon3)cc2)c(C#N)c(-c2cccc(Br)c2)n1 ... 0
COc1ccc(NS(=O)(=O)N2CCCCC2)cc1 ... 0

Proceed to the following item.
In this assay, the call recorded for CN(C)CCCNc1nn2c(=O)c3ccccc3nc2c2ccccc12 was what?
0

###

Hi there, I'd appreciate the recorded growth for every entry that follows.
Tested on: SK-OV-3 ovarian
ASSAY_REMARKS: NCI-60 one-dose screen, 48 h (100 = growth as untreated, 0 = no growth, -100 = all killed)
CONDITION_NOTES: 10 µM unless noted
Compounds without any hit were thinned out: in the full panel of roughly 83,000, 20% have a hit. Active and inactive are the calls of the source. Rule for the calls: active = growth percent below 10; inactive = the rest.

Sample records with growth:
Cc1cc2ccccn2c1C(=O)c1ccc(C(=O)c2ccccc2)cc1 ... 111% (inactive)
COc1cccc2c1C(=O)c1c(O)c3c(c(O)c1C2=O)C[C@@](O)(C(C)=O)C[C@@H]3O[C@H]1C[C@H](N)[C@H](O)[C@H](C)O1 ... 7.97% (active)

Let us move to another entry and its growth.
Consider the compound c1ccc(-c2n(Cc3ccc4ccccc4c3)cc[n+]2Cc2ccc3ccccc3c2)cc1 and give its measured growth.
-6.1% (active)

###

Hi there, I'd appreciate the recorded growth for every entry that follows.
Test system: SK-OV-3 ovarian
ASSAY_REMARKS: NCI-60 one-dose screen, 48 h (100 = growth as untreated, 0 = no growth, -100 = all killed)
CONDITION_NOTES: 10 µM unless noted
The panel holds about 83,000 compounds, 20% with a hit somewhere; the sample as a whole holds those more often.
Numbers only, in %.

Sample records with growth:
COc1cnc2c(c1)C(=O)c1c-2n(CCCn2ccnc2)c(=O)c2cc(F)ccc12 ... -22.5
NS(=O)(=O)c1ccc(-n2ncc3c(NC4CCCCC4)ncnc32)cc1 ... 108
COc1ccc(Cl)cc1Nc1nc(C(F)(F)F)ccc1C(=O)N/N=C/c1c(Cl)cccc1Cl ... 49.7

For every record below, what is its growth?
1. O=C(N/N=C/c1ccc(Cl)cc1Cl)c1ccccc1Nc1cccc(C(F)(F)F)c1
2. CCCCc1ccc(C(N)=O)nc1
3. COc1cc(-c2nc3nc4sc(C)c(C)c4c(=O)n3[nH]2)cc(OC)c1OC
4. COc1cc(C2CC(C3C(=O)N(C)C(=O)N(C)C3=O)=NN2c2cc(Cl)cc(Cl)c2)cc(OC)c1OC (configuration not stated)

97.4
99.5
92
95.6

These data points were gathered from PubChem BioAssay (NCI).
